experiment_summary: Plasma hydrolysis of (−) CPTA prodrug esters in human plasma (Example 21)
Assay type: in vitro ADME
condition_description: human plasma (heparinized, pooled), 125 or 250 μM, 37° C., hydrolysis to (−) CPTA; read-out: Plasma T1/2 (converted)
assay_readout: half-life

Look over these answered cases.
CCOC(=O)COC(=O)C(Oc1cccc(C(F)(F)F)c1)c1ccc(Cl)cc1 (single isomer, unassigned); < 30 min
CC(=O)OCCOC(=O)C(Oc1cccc(C(F)(F)F)c1)c1ccc(Cl)cc1 (single isomer, unassigned); < 60 min
C=CCOC(=O)C(Oc1cccc(C(F)(F)F)c1)c1ccc(Cl)cc1 (single isomer, unassigned); 330 min
O=C(NCCOC(=O)C(Oc1cccc(C(F)(F)F)c1)c1ccc(Cl)cc1)c1ccccc1 (single isomer, unassigned); < 60 min
O=C(NCCOC(=O)C(Oc1cccc(C(F)(F)F)c1)c1ccc(Cl)cc1)c1ccncc1 (single isomer, unassigned); < 60 min
Cc1oc(=O)oc1COC(=O)C(Oc1cccc(C(F)(F)F)c1)c1ccc(Cl)cc1 (single isomer, unassigned); < 30 min
O=C(OCC(=O)N1CCC1)C(Oc1cccc(C(F)(F)F)c1)c1ccc(Cl)cc1 (single isomer, unassigned); < 30 min
O=C(NCCOC(=O)C(Oc1cccc(C(F)(F)F)c1)c1ccc(Cl)cc1)OCc1ccccc1 (single isomer, unassigned); < 120 min
CC(OC(=O)OC1CCCCC1)OC(=O)C(Oc1cccc(C(F)(F)F)c1)c1ccc(Cl)cc1 (single isomer, unassigned; (-)); < 60 min
O=C(NCCOC(=O)C(Oc1cccc(C(F)(F)F)c1)c1ccc(Cl)cc1)c1cccnc1 (single isomer, unassigned); < 30 min

Quickly give me recorded half-life for CC(C)C(=O)NCCOC(=O)C(Oc1cccc(C(F)(F)F)c1)c1ccc(Cl)cc1 (single isomer, unassigned)
< 60 min

Quickly give me recorded half-life for NC(=O)C1CCCN1C(=O)COC(=O)C(Oc1cccc(C(F)(F)F)c1)c1ccc(Cl)cc1 (single isomer, unassigned)
< 30 min

Quickly give me recorded half-life for CCOC(=O)C(Oc1cccc(C(F)(F)F)c1)c1ccc(Cl)cc1 (single isomer, unassigned)
< 420 min

Quickly give me recorded half-life for O=C(OCC(=O)N1CCOCC1)C(Oc1cccc(C(F)(F)F)c1)c1ccc(Cl)cc1 (single isomer, unassigned)
< 30 min

Quickly give me recorded half-life for COCCOC(=O)C(Oc1cccc(C(F)(F)F)c1)c1ccc(Cl)cc1 (single isomer, unassigned; (-))
< 120 min

Quickly give me recorded half-life for NCC(=O)OCCOC(=O)C(Oc1cccc(C(F)(F)F)c1)c1ccc(Cl)cc1 (single isomer, unassigned)
< 30 min

Quickly give me recorded half-life for O=C(Oc1ccccc1)C(Oc1cccc(C(F)(F)F)c1)c1ccc(Cl)cc1 (single isomer, unassigned)
< 30 min

Quickly give me recorded half-life for COCC(=O)NCCOC(=O)C(Oc1cccc(C(F)(F)F)c1)c1ccc(Cl)cc1 (single isomer, unassigned)
< 60 min

Quickly give me recorded half-life for C#CCOC(=O)C(Oc1cccc(C(F)(F)F)c1)c1ccc(Cl)cc1 (single isomer, unassigned; (-))
< 60 min
